growth listing for selected compounds.
System: CAKI-1 renal
assay_details: NCI-60 one-dose screen, 48 h (100 = growth as untreated, 0 = no growth, -100 = all killed)
assay_conditions: 10 µM unless noted
The panel holds about 83,000 compounds, 20% with a hit somewhere; the sample as a whole holds those more often.
Answer format: numeric, % implied, no suffix.

Known results for compounds:
• OCCN=Cc1c[nH]c2ccccc12 = 80.4
• CC(=O)c1cccc(S(=O)(=O)F)c1 = 95.9
• CCCCn1c(=O)c(C(=O)NCc2ccccc2Cl)c(O)c2ccccc21 = 79.6
• CCOC(=O)c1cncn1C(C)c1ccccc1 (configuration not stated) = 94.6
• CN(C)c1ccc(C=C2C(=O)NC(=O)NC2=O)cc1 = 78.9
• O=C(Cc1ccccc1)NC(O)C(Cl)(Cl)Cl (configuration not stated) = 108
• CCCn1cc2c3c(cccc31)[C@H]1C[C@@H](C)CN(C)[C@@H]1C2 = 83.8
• C/C(=N/OC(=O)N(C)C)c1ccc(Cl)c(Cl)c1 = 102

Qu. Give its growth value. Item: `C[C@]12CC[C@@H](OC(=O)N(CCCl)N=O)C[C@@H]1CC[C@@H]1[C@@H]2CC[C@]2(C)C(=O)CC[C@@H]12`
Ans. 20.7

Qu. Moving on to the next compound: `CC(C)COC(=O)Cc1ccccc1`
Ans. 101

Qu. Moving on to the next compound: `Cc1cc(C(C)(C)C)ccc1O`
Ans. 101

Qu. Moving on to the next compound: `CCCCS(=O)(=O)Cl`
Ans. 100
